Hello, the source for this data is PubChem BioAssay AID1511, in case you need it.

- studySystem: Voltage-gated inwardly rectifying potassium channel KCNH2 (Homo sapiens) (UniProt Q12809)
- Sequence (Q12809 whole entry, looked up): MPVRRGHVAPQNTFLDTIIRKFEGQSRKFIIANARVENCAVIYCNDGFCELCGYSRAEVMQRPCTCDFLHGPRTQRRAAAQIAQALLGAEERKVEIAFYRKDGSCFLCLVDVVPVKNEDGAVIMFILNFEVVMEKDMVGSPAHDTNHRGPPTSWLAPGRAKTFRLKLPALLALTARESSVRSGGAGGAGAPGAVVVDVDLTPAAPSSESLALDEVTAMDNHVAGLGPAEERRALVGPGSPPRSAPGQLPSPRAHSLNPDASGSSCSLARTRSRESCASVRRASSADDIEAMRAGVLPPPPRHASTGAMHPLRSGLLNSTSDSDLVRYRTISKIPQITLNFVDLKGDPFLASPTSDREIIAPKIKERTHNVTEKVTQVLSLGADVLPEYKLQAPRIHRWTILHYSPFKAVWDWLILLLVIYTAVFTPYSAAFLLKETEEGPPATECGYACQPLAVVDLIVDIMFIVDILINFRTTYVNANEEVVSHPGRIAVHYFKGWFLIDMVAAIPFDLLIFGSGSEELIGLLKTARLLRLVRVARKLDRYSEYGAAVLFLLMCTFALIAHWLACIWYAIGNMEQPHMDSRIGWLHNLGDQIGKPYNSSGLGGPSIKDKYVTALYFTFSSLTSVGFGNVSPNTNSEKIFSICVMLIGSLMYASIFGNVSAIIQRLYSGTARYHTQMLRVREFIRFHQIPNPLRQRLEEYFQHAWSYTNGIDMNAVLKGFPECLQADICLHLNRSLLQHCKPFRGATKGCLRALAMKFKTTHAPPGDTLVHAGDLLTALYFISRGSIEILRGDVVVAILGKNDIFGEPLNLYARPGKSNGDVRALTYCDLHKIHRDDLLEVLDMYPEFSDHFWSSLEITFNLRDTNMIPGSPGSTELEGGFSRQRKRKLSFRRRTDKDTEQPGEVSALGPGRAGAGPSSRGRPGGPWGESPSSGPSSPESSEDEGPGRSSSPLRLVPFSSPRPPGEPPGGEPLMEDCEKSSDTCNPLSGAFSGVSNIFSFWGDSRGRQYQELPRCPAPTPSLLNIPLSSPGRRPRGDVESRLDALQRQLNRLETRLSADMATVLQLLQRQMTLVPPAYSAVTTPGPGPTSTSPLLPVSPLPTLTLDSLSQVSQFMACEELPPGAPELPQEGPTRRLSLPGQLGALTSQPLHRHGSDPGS
- methodDescription: hERG rescue from dofetilide block, primary screen, cell-based, CHO-hERG, FluxOR thallium flux, dofetilide IC70 (AID 1511);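 note: thallium influx through hERG after potassium depolarization seen as dye fluorescence rise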
- conditionDetails: dofetilide IC70 present, at 10 µM, stronger effect = higher value
The campaign covered roughly 310,000 compounds. About 1,600 (0.52%) were called active. The entries come from a sample that favours actives as a whole.
Item-by-item account of activation (rescue from dofetilide block), less the hit threshold
Value expressed in %; do not type the unit.

Completed entries (count: 3):
chemicalstructure=CCCNC(=O)COc1coc(CN2CCN(Cc3ccccc3)CC2)cc1=O studysystem="Voltage-gated inwardly rectifying potassium channel KCNH2 (Homo sapiens) (UniProt Q12809)" result=-2.43
chemicalstructure=COc1cc(C(=O)Nn2c(O)c(C3=c4ccccc4=NC3=O)sc2=S)ccc1O studysystem="Voltage-gated inwardly rectifying potassium channel KCNH2 (Homo sapiens) (UniProt Q12809)" result=-14.6
chemicalstructure=CCOc1cc(CNn2c(C)nnc2SCC(=O)NC(C)(C)C)ccc1OCC(=O)NC(C)(C)C studysystem="Voltage-gated inwardly rectifying potassium channel KCNH2 (Homo sapiens) (UniProt Q12809)" result=-9.51

Continue with the compound presented below.
Fill blank: measured activation (rescue from dofetilide block), less the hit threshold of the compound `Nc1nc(SCC(=O)N2CCN(S(=O)(=O)c3ccc(Cl)cc3)CC2)n[nH]1` is ____.
-4.93

###

- studySystem: Voltage-gated inwardly rectifying potassium channel KCNH2 (Homo sapiens) (UniProt Q12809)
- methodDescription: hERG rescue from dofetilide block, primary screen, cell-based, CHO-hERG, FluxOR thallium flux, dofetilide IC70 (AID 1511)
- conditionDetails: dofetilide IC70 present, at 10 µM
Out of some 310,000 compounds screened, about 1,600 (0.52%) were called active.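 How the source made its calls: active means activation above the mean of controls blocked by dofetilide plus 5 SD; inactive means the rest.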 Shown is part of a subset that was picked to be rich in actives.
Answer with one of the outcomes class 1 for active, class 0 for inactive

Solved entries:
compound=CC1(C)Cc2cccc(OCC(=O)NCc3ccccc3)c2O1 classassignment="class 0"
compound="OC1CN=C2Sc3ccccc3N2C1 (stereo unspecified)" classassignment="class 1"
compound=O=S(=O)(NCCCc1ccccc1)c1ccc(Br)cc1 classassignment="class 0"
compound=CCOC(=O)c1c(C)oc2cc(Sc3ccccc3)c(O)c(O)c12 classassignment="class 0"
compound=Cc1ccc(S(=O)(=O)Oc2ccc(/C=N/NC(=O)c3c(Cl)cnn3C)cc2)cc1 classassignment="class 0"

Status in this test for `CCOC(=O)c1cc(-c2ccc(Cl)s2)nc2c1c(C)nn2C` ?
class 0

Status in this test for `Cc1ccc(NC(=O)c2cc([N+](=O)[O-])ccc2Cl)c(O)c1` ?
class 0

###

- studySystem: Voltage-gated inwardly rectifying potassium channel KCNH2 (Homo sapiens) (UniProt Q12809)
- methodDescription: hERG rescue from dofetilide block, primary screen, cell-based, CHO-hERG, FluxOR thallium flux, dofetilide IC70 (AID 1511)
- conditionDetails: dofetilide IC70 present, at 10 µM, stronger effect = higher value
About 1,600 (0.52%) of roughly 310,000 compounds were called active. The list comes from a sample in which actives are over-represented; it also holds close analogues and randomly drawn compounds.
Item-by-item account of activation (rescue from dofetilide block), less the hit threshold
Value expressed in %; do not type the unit.

Completed entries (count: 6):
compound=COCCCn1c(Cc2csc(Nc3cccc(Cl)c3)n2)nnc1SCC(=O)OC1CCCCC1 result=-9.88
compound=O=C(N/N=C/c1cccnc1)c1cc2ccccc2cc1O result=-0.07
compound=O=C(Cn1ccc2cc(S(=O)(=O)N3CCCC3)ccc21)NCc1ccccc1 result=-5.85
compound=COc1ccc(CN2CCOC2=O)cc1OC result=-6.78
compound=Cc1ccc(NC(=O)CSCC(=O)NC2CCCCC2)cc1 result=-3.26
compound=Cc1ccc(NC(=S)NC2CCCC2)cc1 result=4.71

Fill blank: measured activation (rescue from dofetilide block), less the hit threshold of the compound OC(c1nnc(-c2ccccc2)o1)c1cccs1 (stereo unspecified) is ____.
-10.2

Fill blank: measured activation (rescue from dofetilide block), less the hit threshold of the compound `COc1ccc(CNC(=O)[C@@H]2CC=C[C@@H]3CCN(C4CC4)C(=O)[C@@H]32)cc1` is ____.
-7.13

###

- studySystem: Voltage-gated inwardly rectifying potassium channel KCNH2 (Homo sapiens)
- methodDescription: hERG rescue from dofetilide block, primary screen, cell-based, CHO-hERG, FluxOR thallium flux, dofetilide IC70 (AID 1511);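 note: thallium influx through hERG after potassium depolarization seen as dye fluorescence rise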
- conditionDetails: dofetilide IC70 present, at 10 µM, stronger effect = higher value
About 1,600 (0.52%) of roughly 310,000 compounds were called active. The full list was thinned out, with actives kept by preference.
Item-by-item account of activation (rescue from dofetilide block), less the hit threshold
Value expressed in %; do not type the unit.

Completed entries (count: 8):
compound=C[N+](C)(C)CCNC(=O)c1c(O)c2c([nH]c1=O)CCCC2 result=4.89
compound=CCSc1ccccc1C(=O)NCc1ccc(OC)cc1 result=0.47
compound=O=C1c2ccccc2C(=O)N1CCCc1nc(-c2ccccc2)no1 result=-6.67
compound=O=C(NCc1ccccn1)c1c(O)c2c([nH]c1=O)CCCC2 result=-0.66
compound=O=C1c2ccccc2C(=O)N1Cc1cc(-c2ccccc2Cl)no1 result=11.4
compound=CCc1nnc(NC(=O)c2c(O)c3c([nH]c2=O)CCCC3)s1 result=-12.7
compound=CCc1ccc(CN(C)C(=O)CCc2nnc(-c3ccc(-c4ccccc4)cc3)o2)nc1 result=-22.3
compound=CCN(CC)c1ccc(C(=O)c2cnc(/N=C/N(C)C)s2)cc1 result=-22

I'm curious: which activation (rescue from dofetilide block), less the hit threshold was measured for O=C(Nc1ccc(-c2cscn2)cc1)C1CCCN(Cc2ccc(CO)o2)C1 (stereo unspecified) tested on Voltage-gated inwardly rectifying potassium channel KCNH2 (Homo sapiens)?
-2.17

I'm curious: which activation (rescue from dofetilide block), less the hit threshold was measured for `Cc1ccc2c(c1)N(CC(=O)N1CCC(C)CC1)C(=O)c1cccnc1O2` tested on Voltage-gated inwardly rectifying potassium channel KCNH2 (Homo sapiens)?
-4.18

I'm curious: which activation (rescue from dofetilide block), less the hit threshold was measured for C=CCN1C(=O)C(Cc2cccc(Cl)c2)S/C1=N/N=C/c1ccco1 (stereo unspecified) tested on Voltage-gated inwardly rectifying potassium channel KCNH2 (Homo sapiens)?
-5.7

###

- studySystem: Voltage-gated inwardly rectifying potassium channel KCNH2 (Homo sapiens) (UniProt Q12809)
- methodDescription: hERG rescue from dofetilide block, primary screen, cell-based, CHO-hERG, FluxOR thallium flux, dofetilide IC70 (AID 1511);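 note: thallium influx through hERG after potassium depolarization seen as dye fluorescence rise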
- conditionDetails: dofetilide IC70 present, at 10 µM
Hit rate of the full screen: of about 310,000 compounds, about 1,600 (0.52%) were called active.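 Rule for the calls: active = activation above the mean of controls blocked by dofetilide plus 5 SD; inactive = the rest.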 This excerpt belongs to a sample that is enriched for actives.
Answer with one of the outcomes 1 (yes) for active, 0 (no) for inactive

Solved entries:
chemicalstructure=O=c1oc2ccccc2cc1-c1cn(-c2ccccc2)c(=S)[nH]1 classassignment="0 (no)"
chemicalstructure=Cc1cccc(NC(=O)c2ccc([N+](=O)[O-])o2)c1 classassignment="0 (no)"
chemicalstructure=COc1ccc(-c2cn(-c3ccc(OC)cc3)c(=S)[nH]2)cc1 classassignment="0 (no)"
chemicalstructure=Cc1cccc(NC(=O)NC(=S)NC(=O)c2ccccc2)c1 classassignment="0 (no)"
chemicalstructure=NC1=NN(c2cccc(C(=O)O)c2)C(=O)C1 classassignment="0 (no)"
chemicalstructure=Cc1cccc(NC(=S)NC(=O)c2ccc(Br)o2)c1 classassignment="1 (yes)"
chemicalstructure=O=P(O)(CP(=O)(c1ccccc1)c1ccccc1)c1ccccc1O classassignment="1 (yes)"
chemicalstructure=S=c1[nH]c(-c2cccs2)cn1-c1ccccc1 classassignment="1 (yes)"

Status in this test for `Nc1nnnn1/N=C/c1cccc(Br)c1` ?
0 (no)

Status in this test for `O=Cc1c(NCCc2cccc(F)c2)c2ccccc2[nH]c1=O` ?
0 (no)

Status in this test for `N/C(=N\OC(=O)CC1CCCCC1)c1ccccc1` ?
0 (no)

Status in this test for `Cc1cc(O)c(C(=O)/C=C/c2c(F)c(F)c(F)c(F)c2F)c(=O)o1` ?
0 (no)

###

- studySystem: Voltage-gated inwardly rectifying potassium channel KCNH2 (Homo sapiens) (UniProt Q12809)
- methodDescription: hERG rescue from dofetilide block, primary screen, cell-based, CHO-hERG, FluxOR thallium flux, dofetilide IC70 (AID 1511);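 note: thallium influx through hERG after potassium depolarization seen as dye fluorescence rise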
- conditionDetails: dofetilide IC70 present, at 10 µM, stronger effect = higher value
Among all 310,000 compounds or so, about 1,600 (0.52%) were called active. Only a selection was taken, and actives are over-represented in it overall.
propertyName: activation (rescue from dofetilide block), less the hit threshold (%)
Value expressed in %; do not type the unit.

compound=CSc1cccc(NC(=O)CN2C(=O)COc3ccc(S(=O)(=O)N4CCOCC4)cc32)c1 result=-8.66

Fill blank: measured activation (rescue from dofetilide block), less the hit threshold of the compound `Cn1cc(S(=O)(=O)N2CCN(c3ccc(F)cc3)CC2)c(=O)n(C)c1=O` is ____.
-3.11

Fill blank: measured activation (rescue from dofetilide block), less the hit threshold of the compound `O=C(CCn1c(=S)[nH]c2cc3c(cc2c1=O)OCO3)NCc1ccc(Cl)cc1` is ____.
4.99
